Measured target: Aldo-keto reductase family 1 member B1 (Rattus norvegicus)
Test name: Inhibition of aldose reductase in rat lens homogenate at 100 uM
Property label: inhibition (%)

// solved cases for inhibition follow
Molecule: COc1cc([C@H]2c3c(cc(OC)c(O)c3OC)C[C@@H](CO)[C@@H]2CO)ccc1O
Unit label: %
inhibition: 24
--
Molecule: C[C@@H]1[C@@]23CC[C@H]4[C@@](C)(CC[C@@]5(C)[C@@H]6C[C@](C)(C(=O)O)CC[C@]6(C)CC[C@]45C)[C@@H]2CC[C@@]1(O)OC3 [SALASPERMIC ACID]
Unit label: %
inhibition: 2
--
Molecule: C[C@@H]1[C@@]23CC[C@H]4[C@@](C)(CC[C@@]5(C)[C@@H]6C[C@](C)(C(=O)O)CC[C@]6(C)CC[C@]45C)[C@@H]2C[C@@H](O)[C@]1(O)OC3 [ORTHOSPHENIC ACID]
Unit label: %
inhibition: 19
--
Molecule: C[C@H]1C(=O)[C@H](O)C[C@@H]2[C@]1(C)CC[C@H]1[C@@]2(C)CC[C@@]2(C)[C@@H]3C[C@](C)(C(=O)O)CC[C@]3(C)CC[C@]12C [WILFOLIC ACID C]
Unit label: %
inhibition: 48
--
Molecule: C[C@H]1C(=O)CC[C@@H]2[C@]1(C)CC[C@H]1[C@@]2(C)CC[C@@]2(C)[C@@H]3CC(C)(C)CC[C@]3(C)C[C@H](O)[C@]12C
Unit label: %
inhibition: 8

1. CC1(C)CC[C@]2(C)CC[C@]3(C)C(=CC[C@@H]4[C@@]5(C)CCC(=O)C(C)(C)[C@@H]5CC[C@]43C)[C@@H]2C1
2. C[C@@H]1[C@H]2C3=CC[C@@H]4[C@@]5(C)CC[C@H](O)C(C)(C)[C@@H]5CC[C@@]4(C)[C@]3(C)CC[C@@]2(C)[C@@H](O)C[C@H]1C(=O)O [TRIPTERYGIC ACID A]
3. CC1(C)CC[C@]2(C)CC[C@]3(C)C(=CC[C@@H]4[C@@]5(C)CC[C@H](O)C(C)(C)[C@@H]5CC[C@]43C)[C@@H]2C1 [beta-AMYRIN]
List the 3 entries from lowest inhibition to highest inhibition value. # respond with the labels, arranged in the requested order
1, 3, 2

I. COc1cc([C@H]2c3c(cc(OC)c(O)c3OC)C[C@@H](CO)[C@@H]2CO)cc(OC)c1O
II. C[C@H]1C(=O)CC[C@@H]2[C@]1(C)CC[C@H]1[C@@]2(C)CC[C@@]2(C)[C@@H]3C[C@](C)(C(=O)O)CC[C@]3(C)CC[C@]12C [MAYTENOIC ACID]
III. CC1(C)C(=O)CC[C@]2(C)[C@H]3CC=C4[C@@H]5C[C@](C)(C(=O)O)C[C@H](O)[C@]5(C)CC[C@@]4(C)[C@]3(C)CC[C@@H]12
Put the items in sequence by inhibition, from largest down. Quick reminder: the answer is the labels in the order asked.
II, III, I

###

This section lists pIC50 readings for Aldo-keto reductase family 1 member B1 (Rattus norvegicus, UniProt P07943).
// scale note: pIC50 = -log10(conc_M); give the bare number

Molecule: C[C@H]1C(=O)CC[C@@H]2[C@]1(C)CC[C@H]1[C@@]2(C)CC[C@@]2(C)[C@@H]3C[C@](C)(CO)CC[C@]3(C)CC[C@]12C [3-OXO-29-HYDROXYFRIEDELANE]
pIC50: 4.01

// next entry
For the record Cc1c(O)c(O)cc2c1CC[C@H]1[C@@]2(C)CC[C@@]2(C)[C@@H]3C[C@@H](C)C(=O)[C@@H](O)[C@]3(C)CC[C@]12C , what value of pIC50 is listed for Aldo-keto reductase family 1 member B1 (Rattus norvegicus, UniProt P07943)?
4.52

###

Measured target: Aldo-keto reductase family 1 member B1 (Rattus norvegicus, UniProt P07943)
Property label: IC50 (µM)

Structure string: CC1=C(O)C(=O)C=C2C1=CC=C1[C@@]2(C)CC[C@@]2(C)[C@@H]3C[C@@H](C)C(=O)[C@@H](O)[C@]3(C)CC[C@]12C
Property label: IC50
Readout value: 7
//
Structure string: CC1=C(O)C(=O)C=C2C1=CC=C1[C@@]2(C)CC[C@@]2(C)[C@@H]3C[C@@H](C)C(=O)C[C@]3(C)CC[C@]12C
Property label: IC50
Readout value: 13
//
Structure string: CC(=O)OC[C@]12[C@@H](OC(=O)c3ccccc3)C[C@@H]3[C@@H](OC(C)=O)[C@]1(OC3(C)C)[C@H](C)C[C@H](OC(C)=O)[C@@H]2O
Property label: IC50
Readout value: 95
//
Structure string: CC1=C2CC[C@H]3[C@@](C)(CC[C@@]4(C)[C@@H]5C[C@@H](C)C(=O)[C@@H](O)[C@]5(C)CC[C@]34C)[C@@H]2C[C@H](O)C1=O
Property label: IC50
Readout value: 14

1. CC1(C)[C@@H](O)CC[C@]2(C)[C@H]3CC=C4[C@@H]5C[C@](C)(C(=O)O)C[C@H](O)[C@]5(C)CC[C@@]4(C)[C@]3(C)CC[C@@H]12
2. O=c1c2cc(O)c(O)cc2oc2cc(O)c([C@@H]3O[C@H](CO)[C@@H](O)[C@H](O)[C@H]3O)c(O)c12
Between the two listed entries 1 and 2 , which has its IC50 at the higher number? Use the label to indicate which entry you chose.
1

###

Measured target: UniProt P07943
pIC50: −log10 of the molar value.
Property label: pIC50

Worked cases, pIC50 given:
Compound: Oc1cc(O)c2c(c1)O[C@H](c1ccc(O)c(O)c1)[C@@H](O)C2
Readout value: < 4.52
--
Compound: Oc1cc(O)c2c(c1)O[C@H](c1cc(O)c(O)c(O)c1)[C@H](O)C2 [EPIGALLOCATECHIN]
Readout value: < 4.52
--
Compound: CC1(C)CC[C@]2(C)CC[C@]3(C)C(=CC[C@@H]4[C@@]5(C)CC[C@H](O)C(C)(C)[C@@H]5CC[C@]43C)[C@@H]2C1
Readout value: < 4.00
--
Compound: Oc1cc(O)c2c(c1)O[C@H](c1ccc(O)c(O)c1)[C@H](O)C2 [(-)-EPICATECHIN]
Readout value: < 4.52
--
Compound: CC1(C)CC[C@]2(C)CC[C@]3(C)C(=CC[C@@H]4[C@@]5(C)CCC(=O)C(C)(C)[C@@H]5CC[C@]43C)[C@@H]2C1
Readout value: < 4.00

Turning now to a further compound:
What measured pIC50 goes with C[C@H]1C(=O)CC[C@@H]2[C@]1(C)CC[C@H]1[C@@]2(C)CC[C@@]2(C)[C@@H]3CC(C)(C)CC[C@]3(C)C[C@H](O)[C@]12C ?
< 4.00
